Assay: Drug level in Tg2576 betaAPP swedish transgenic mouse plasma at 500 umol/kg, sc twice a day for 5 days
Format: ADME, organism-based
Metric: concentration at 120 h (µM)

| Compound Structure String | Metric | Experimental Result |
| --- | --- | --- |
| CCC[C@@H](C)N(c1cc(Cl)ccc1CO)S(=O)(=O)c1ccc(Cl)cc1 | concentration at 120 h | 21 |

====

Target: Gamma-secretase
Experiment: Inhibition of gamma secretase-mediated beta-APP cleavage in human H4 cells assessed by measuring Abeta40 production by ELISA
Metric: IC50 (nM)

| Compound | Metric | Experimental Result |
| --- | --- | --- |
| CCCCN(c1cc(Cl)ccc1CO)S(=O)(=O)c1ccc(C)cc1 | IC50 | 1300 |
| CC(C1CCC1)N(c1cc(Cl)ccc1CO)S(=O)(=O)c1ccc(Cl)cc1 (stereo not drawn) | IC50 | 12 |
| C=CC[C@@H](C)N(c1cc(Cl)ccc1CO)S(=O)(=O)c1ccc(Cl)cc1 | IC50 | 14 |

Recorded values, source ChEMBL document CHEMBL1149579.
